System: NF-κB
procedure text: NF-κB transcriptional activity dual-luciferase reporter assay, TNF-α stimulated
Type: cell-based
conditions used: Homo sapiens, HEK-293T, HEK293T cells transfected with NF-κB reporter plasmid, stimulated by TNF-α
property measured: IC50 (nM)

Consider the worked cases shown below.
molecule smiles | IC50 [nM]
CCc1ccc(-c2cnc(N)c(C(=O)Nc3cccc(C)c3)c2)cc1 | 1330
CCc1ccc(-c2cnc(N)c(C(=O)Nc3cccc(N)c3)c2)cc1 | 95.8
CCc1ccc(-c2cnc(N)c(C(=O)Nc3ccccc3N)c2)cc1 | 571
COc1ccc(-c2cnc(N)c(C(=O)Nc3ccc(NC(C)=O)cc3)c2)c(F)c1 | 1420

[a] CCc1ccc(-c2cncc(C(=O)Nc3ccc(NC(C)=O)cc3)c2)cc1
[b] CCc1ccc(-c2cnc(N)c(C(=O)Nc3cccc(NC(C)=O)c3)c2)cc1
q: Which has the higher IC50, a or b ? Please identify the chosen entry by its label.
a: a
